Let's go through some recorded IC50 values for human MATE2 (Homo sapiens, UniProt Q86VL8) together.

compound: NC(=O)c1ncn([C@@H]2O[C@H](CO)[C@@H](O)[C@H]2O)n1
IC50: > 100 µM
//
compound: CCOC(=O)C1=C[C@@H](OC(CC)CC)[C@H](NC(C)=O)[C@@H](N)C1
IC50: > 100 µM

Value wanted: IC50 (human MATE2 (Homo sapiens, UniProt Q86VL8)) of entry O=C1CCC(N2C(=O)c3ccccc3C2=O)C(=O)N1 (centres unmarked) [Thalidomide]
> 100 µM

Value wanted: IC50 (human MATE2 (Homo sapiens, UniProt Q86VL8)) of entry COc1cc2c(c(OC)c1OC)-c1ccc(OC)c(=O)cc1[C@@H](NC(C)=O)CC2
> 100 µM

Value wanted: IC50 (human MATE2 (Homo sapiens, UniProt Q86VL8)) of entry CCCCc1nc(Cl)c(CO)n1Cc1ccc(-c2ccccc2-c2nn[nH]n2)cc1
> 100 µM

Value wanted: IC50 (human MATE2 (Homo sapiens, UniProt Q86VL8)) of entry COc1ccc2cc1Oc1ccc(cc1)C[C@H]1c3cc(c(OC)cc3CCN1C)Oc1c(OC)c(OC)cc3c1[C@H](C2)N(C)CC3
> 10 µM

Value wanted: IC50 (human MATE2 (Homo sapiens, UniProt Q86VL8)) of entry CCCCCCCCc1ccc(CCC(N)(CO)CO)cc1
> 100 µM

Value wanted: IC50 (human MATE2 (Homo sapiens, UniProt Q86VL8)) of entry CC[C@H]1OC(=O)[C@H](C)[C@@H](O[C@H]2C[C@@](C)(OC)[C@@H](O)[C@H](C)O2)[C@H](C)[C@@H](O[C@@H]2O[C@H](C)C[C@H](N(C)C)[C@H]2O)[C@](C)(O)C[C@@H](C)CN(C)[C@H](C)[C@@H](O)[C@]1(C)O
> 50 µM

---

Quick reference: No. of transporters at major organ sites inhibited at clinical concentrations of the listed items.
tested on: transporters at major organ sites; assay: Prediction of transporter-mediated inhibition / DDI potential; set-up: species or system human; conditions: of 11 transporters; FDA criteria

Example cases with answers are listed next.
compound: CC(C)CN(C[C@@H](O)[C@H](Cc1ccccc1)NC(=O)O[C@H]1CO[C@H]2OCC[C@H]21)S(=O)(=O)c1ccc(N)cc1 [Darunavir]
reportedValue: 5

compound: NC(=O)c1ncn([C@@H]2O[C@H](CO)[C@@H](O)[C@H]2O)n1 [Ribavirin]
reportedValue: 2

compound: CC[C@H]1OC(=O)[C@H](C)[C@@H](O[C@H]2C[C@@](C)(OC)[C@@H](O)[C@H](C)O2)[C@H](C)[C@@H](O[C@@H]2O[C@H](C)C[C@H](N(C)C)[C@H]2O)[C@](C)(O)C[C@@H](C)CN(C)[C@H](C)[C@@H](O)[C@]1(C)O [Azithromycin]
reportedValue: 1

No. of transporters at major organ sites inhibited at clinical concentrations lookup needed for NC(=O)c1nc(F)c[nH]c1=O [Favipiravir] , thanks.
3

No. of transporters at major organ sites inhibited at clinical concentrations lookup needed for CCOC(=O)c1c(CSc2ccccc2)n(C)c2cc(Br)c(O)c(CN(C)C)c12 [Umifenovir (Arbidol), Umifenovir] , thanks.
6

No. of transporters at major organ sites inhibited at clinical concentrations lookup needed for N#CC[C@H](C1CCCC1)n1cc(-c2ncnc3[nH]ccc23)cn1 [Ruxolitinib] , thanks.
1
